Each item that follows carries a reported IC50.
System: SARS-CoV-2
Test: microbe, parasite or virus in culture
Assay type: cell-based, SARS-CoV-2 (βCoV/KOR/KCDC03/2020)
Conditions: Severe acute respiratory syndrome coronavirus 2, Vero; read-out: IC50, antiviral activity against SARS-CoV-2
// note: answer is a bare numeric in µM

Answered cases to consult:
molecule	assayed_target	experimental_value
CCCCCc1cc(O)c2c(c1)OC(C)(C)c1ccc(C)cc1-2	SARS-CoV-2	11.1
Cc1cccc(C)c1OCC(=O)N[C@@H](Cc1ccccc1)[C@@H](O)C[C@H](Cc1ccccc1)NC(=O)[C@H](C(C)C)N1CCCNC1=O [lopinavir, reference compound]	SARS-CoV-2	9.78
C=C(C)[C@@H]1CCC(C)=C[C@H]1c1c(O)cc(CCCCC)c(C(=O)O)c1O	SARS-CoV-2	37.6
CCCCCc1cc(O)c2c(c1)OC(C)(C)[C@@H]1CCC(C)=C[C@@H]21 [Compound T4, Δ^9-Tetrahydrocannabinol]	SARS-CoV-2	10.2
C=C(C)[C@@H]1CCC(C)=C[C@H]1c1c(O)cc(CCCCC)cc1O	SARS-CoV-2	7.91

Ask: Consider the molecule CCN(CC)CCCC(C)Nc1ccnc2cc(Cl)ccc12 (stereo not shown) [chloroquine, reference compound] and give its measured IC50.
Reply: 8.17

Ask: Same thing, different molecule: CCCCCc1cc2c(c(O)c1C(=O)O)[C@@H]1C=C(C)CC[C@H]1C(C)(C)O2 [Compound T3, Δ9-Tetrahydrocannabinolic acid]
Reply: 13.2
